# target.of.assay: P-glycoprotein (P-gp) (Homo sapiens (Human), UniProt P08183)
# Sequence (P08183 whole entry): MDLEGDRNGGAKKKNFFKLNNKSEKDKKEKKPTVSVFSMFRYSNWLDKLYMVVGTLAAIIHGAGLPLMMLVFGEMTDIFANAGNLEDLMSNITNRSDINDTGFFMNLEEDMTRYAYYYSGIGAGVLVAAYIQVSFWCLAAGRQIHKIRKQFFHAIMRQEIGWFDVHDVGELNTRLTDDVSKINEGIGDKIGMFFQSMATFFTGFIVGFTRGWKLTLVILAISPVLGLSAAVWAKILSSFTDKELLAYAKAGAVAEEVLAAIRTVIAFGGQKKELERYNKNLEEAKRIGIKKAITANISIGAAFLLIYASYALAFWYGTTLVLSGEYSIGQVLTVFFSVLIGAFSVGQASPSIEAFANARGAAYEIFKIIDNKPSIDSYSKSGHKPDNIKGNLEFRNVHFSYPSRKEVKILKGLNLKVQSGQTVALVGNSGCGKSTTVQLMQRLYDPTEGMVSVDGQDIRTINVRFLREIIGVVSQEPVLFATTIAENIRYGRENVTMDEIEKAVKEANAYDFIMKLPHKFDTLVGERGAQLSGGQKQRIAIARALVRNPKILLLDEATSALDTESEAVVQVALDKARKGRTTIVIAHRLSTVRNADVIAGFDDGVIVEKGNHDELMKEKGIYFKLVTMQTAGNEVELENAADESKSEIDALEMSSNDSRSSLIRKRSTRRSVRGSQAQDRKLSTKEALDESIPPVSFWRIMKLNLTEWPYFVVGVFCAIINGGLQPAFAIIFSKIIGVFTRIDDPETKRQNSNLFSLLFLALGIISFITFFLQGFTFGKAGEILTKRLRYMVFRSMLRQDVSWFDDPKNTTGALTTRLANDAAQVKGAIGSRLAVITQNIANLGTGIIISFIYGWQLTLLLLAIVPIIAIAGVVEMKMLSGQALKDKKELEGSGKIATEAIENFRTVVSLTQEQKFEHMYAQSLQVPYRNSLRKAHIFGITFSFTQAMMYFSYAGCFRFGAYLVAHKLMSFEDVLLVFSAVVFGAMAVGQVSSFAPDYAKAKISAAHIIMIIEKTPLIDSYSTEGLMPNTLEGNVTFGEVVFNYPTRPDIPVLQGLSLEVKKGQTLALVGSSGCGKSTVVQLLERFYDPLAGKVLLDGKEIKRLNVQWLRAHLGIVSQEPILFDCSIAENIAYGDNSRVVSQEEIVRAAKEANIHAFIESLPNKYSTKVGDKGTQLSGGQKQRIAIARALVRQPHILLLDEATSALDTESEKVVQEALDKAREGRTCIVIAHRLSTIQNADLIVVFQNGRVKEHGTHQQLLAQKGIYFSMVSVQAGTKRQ
# protocol.text: P-gp transport, experimental BA/AB ratio, human
# Assay type: in vitro ADME
# applied.conditions: LLC-PK1, 1 μM substrate concentration
Could you please classify the records by efflux ratio at 1 μM using these ranges: range 1 (below 0.6), range 2 (0.6 to below 1), range 3 (1 or more)

| compound | cat |
| --- | --- |
| CC(C)C(C)(NC(=O)c1cc(=O)[nH]c(N(C)C)n1)c1ccc(S(F)(F)(F)(F)F)cc1 (single isomer, unassigned) | range 2 |
| CN(C)c1nc(C(=O)N[C@@H](c2ccc(OC(F)F)cc2)C2CC2)cc(=O)[nH]1 | range 3 |
| CN(C)c1nc(C(=O)N[C@@H](c2ccc(C(F)F)c(F)c2)C2(C)CC2)cc(=O)[nH]1 | range 2 |
| CC(C)[C@@H](NC(=O)c1cc(=O)[nH]c(N(C)C)n1)c1ccc(OC(F)F)cc1 | range 3 |
| C[C@@H](NC(=O)c1cc(=O)[nH]c(N2CC[C@H](F)C2)n1)c1ccc(C(F)(F)F)cc1 | range 2 |
| C[C@@H](NC(=O)c1cc(=O)[nH]c(N(C)C)n1)c1ccc(S(F)(F)(F)(F)F)cc1 | range 1 |
| CN(C)c1nc(C(=O)NC(c2ccc(SC(F)(F)F)c(F)c2)C2(C)CC2)cc(=O)[nH]1 (single isomer, unassigned) | range 3 |
| CC(C)(C)[C@@H](NC(=O)c1cc(=O)[nH]c(N)n1)c1ccc(C(F)(F)F)cc1 | range 3 |
| C[C@@H](NC(=O)c1cc(=O)[nH]c(N2CCC2)n1)c1ccc(C(F)(F)F)cc1 | range 1 |
| CC(C)[C@@H](NC(=O)c1cc(=O)[nH]c(N)n1)c1ccc(SC(F)(F)F)c(F)c1 | range 3 |
| C[C@@H](NC(=O)c1cc(=O)[nH]c(N2CCCC2)n1)c1ccc(C(F)(F)F)cc1 | range 1 |
| CN(C)c1nc(C(=O)NC2(c3ccc(SC(F)(F)F)cc3)CC2)cc(=O)[nH]1 | range 1 |
| CN(C)c1nc(C(=O)N[C@@H](c2ccc(OC(F)F)c(F)c2)C(C)(C)C)cc(=O)[nH]1 | range 3 |
| CN(C)c1nc(C(=O)NC(C)(C)c2ccc(C(F)(F)F)cc2Cl)cc(=O)[nH]1 | range 1 |
| O=C(N[C@@H](c1ccc(S(F)(F)(F)(F)F)cc1)C1CC1)c1cc(=O)[nH]c(N2CCCC2)n1 | range 2 |
| CC(C)[C@@H](NC(=O)c1cc(=O)[nH]c(N2CC[C@H](F)C2)n1)c1ccc(C(F)(F)F)c(F)c1 | range 3 |
| CC[C@@H](NC(=O)c1cc(=O)[nH]c(N(C)C)n1)c1ccc(S(F)(F)(F)(F)F)cc1 | range 1 |
| CC(C)OCCCOc1nc(C(=O)NC(C)c2ccc(C(F)(F)F)cc2)cc(=O)[nH]1 (stereo not drawn) | range 3 |
| CN(C)c1nc(C(=O)N[C@@H](c2ccc(C3CC3)cc2)C2(C)CC2)cc(=O)[nH]1 | range 1 |
| CN(C)c1nc(C(=O)N[C@@H](c2ccc(C(F)(F)F)c(F)c2)C2CC2)cc(=O)[nH]1 | range 1 |
| CN(C)c1nc(C(=O)N[C@@H](c2ccc(C(F)(F)F)c(F)c2)C2(C)CC2)cc(=O)[nH]1 | range 2 |
| CC(C)[C@@H](NC(=O)c1cc(=O)[nH]c(N(C)C)n1)c1ccc(C2CC2)c(F)c1 | range 1 |
| CN(C)c1nc(C(=O)N[C@@H](c2ccc(C3CC3)c(F)c2)C(C)(C)C)cc(=O)[nH]1 | range 3 |
| CC(C)(C)[C@@H](NC(=O)c1cc(=O)[nH]c(N2CC[C@H](F)C2)n1)c1ccc(C(F)(F)F)cc1 | range 3 |
| CN(C)c1nc(C(=O)N[C@@H](c2ccc(C(F)F)cc2)C2(C)CC2)cc(=O)[nH]1 | range 3 |
| CC(C)[C@@H](NC(=O)c1cc(=O)[nH]c(N2CCCC2)n1)c1ccc(SC(F)(F)F)cc1 | range 2 |

###

# target.of.assay: human PDE2A1 (Homo sapiens (Human), UniProt O00408)
# Sequence (O00408 other isoform, or with tags, fused parts or gaps): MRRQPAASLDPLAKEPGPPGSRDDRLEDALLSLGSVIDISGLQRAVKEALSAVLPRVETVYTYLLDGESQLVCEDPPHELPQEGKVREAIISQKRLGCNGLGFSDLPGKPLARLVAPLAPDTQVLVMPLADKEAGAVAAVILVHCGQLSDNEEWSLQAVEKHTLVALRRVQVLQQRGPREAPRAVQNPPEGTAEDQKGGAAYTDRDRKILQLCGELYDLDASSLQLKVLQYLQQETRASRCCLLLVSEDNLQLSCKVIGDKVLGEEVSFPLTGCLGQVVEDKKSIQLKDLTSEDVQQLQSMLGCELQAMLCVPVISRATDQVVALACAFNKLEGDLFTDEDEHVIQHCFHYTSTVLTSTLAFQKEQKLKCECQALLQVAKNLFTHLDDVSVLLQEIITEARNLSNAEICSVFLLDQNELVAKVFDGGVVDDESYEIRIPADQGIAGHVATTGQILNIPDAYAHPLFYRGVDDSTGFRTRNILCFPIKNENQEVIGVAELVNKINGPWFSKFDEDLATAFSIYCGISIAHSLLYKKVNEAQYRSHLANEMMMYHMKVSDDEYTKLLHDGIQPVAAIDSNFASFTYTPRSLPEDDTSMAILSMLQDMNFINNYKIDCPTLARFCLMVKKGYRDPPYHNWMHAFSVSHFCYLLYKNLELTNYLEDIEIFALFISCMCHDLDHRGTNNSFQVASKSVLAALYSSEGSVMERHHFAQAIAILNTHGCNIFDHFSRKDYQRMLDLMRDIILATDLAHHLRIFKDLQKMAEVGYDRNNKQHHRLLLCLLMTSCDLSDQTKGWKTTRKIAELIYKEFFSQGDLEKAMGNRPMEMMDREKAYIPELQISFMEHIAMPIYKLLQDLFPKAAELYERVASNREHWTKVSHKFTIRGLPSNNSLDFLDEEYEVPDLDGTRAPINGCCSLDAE
# protocol.text: PDE2 IMAP FP inhibition assay, human PDE2A1 (selectivity panel format)
# Assay type: biochemical
# applied.conditions: Lab B; read-out: Human PDE2 Ki (nM) - Lab B
# log10 of Ki listing for each entry below
measured.parameter: log10 of Ki (log10 of the value in nM)

| molecule | log10 of Ki |
| --- | --- |
| CC(C)[C@@H](NC(=O)c1cc(=O)[nH]c(N2CC[C@H](F)C2)n1)c1ccc(C(F)(F)F)c(F)c1 | -0.33 |
| CC(NC(=O)c1cc(=O)[nH]c(N(C)C)n1)c1ccc(C(C)(C)C(F)(F)F)cc1 (single isomer, unassigned) | 1.53 |
| CN(C)c1nc(C(=O)N[C@@H](c2ccc(OC(F)F)c(F)c2)C(C)(C)C)cc(=O)[nH]1 | -0.42 |
| CN(C)c1nc(C(=O)NC(c2ccc(SC(F)(F)F)c(F)c2)C2(C)CC2)cc(=O)[nH]1 (single isomer, unassigned) | 0.28 |
| CN(C)c1nc(C(=O)NC2(c3ccc(CC(F)(F)F)cc3)CC2)cc(=O)[nH]1 | 0.99 |
| CN(C)c1nc(C(=O)N[C@@H](c2ccc(C3CC3)c(F)c2)C2CC2)cc(=O)[nH]1 | -0.29 |
| CN(C)c1nc(C(=O)NC(c2ccc(C3(C)CC3)c(F)c2)C(C)(C)C)cc(=O)[nH]1 (single isomer, unassigned) [Example 124] | -0.47 |
| COCC1CCN(c2nc(C(=O)N[C@@H](c3ccc(C(F)(F)F)cc3)C(C)(C)C)cc(=O)[nH]2)C1 (single isomer, unassigned) [Example 176] | -0.42 |
| CN(C)c1nc(C(=O)NC2(c3ccc(OC(F)F)cc3)CC2)cc(=O)[nH]1 | 1.04 |
| CN(C)c1nc(C(=O)NC(C)(C)c2ccc(C(F)(F)F)cc2Cl)cc(=O)[nH]1 | -0.10 |
| CN(C)c1nc(C(=O)NC2(c3ccc(OC(F)(F)F)cc3)CCC2)cc(=O)[nH]1 | 1.26 |
| CC(C)[C@@H](NC(=O)c1cc(=O)[nH]c(N(C)C)n1)c1ccc(OC(F)(F)F)c(Cl)c1 | 0.23 |
| CC(C)(C)[C@@H](NC(=O)c1cc(=O)[nH]c(N)n1)c1ccc(C(F)(F)F)cc1 | 0.80 |
| CN(C)c1nc(C(=O)NC(c2ccc(C3(C)CC3)c(F)c2)C(C)(C)C)cc(=O)[nH]1 (single isomer, unassigned) [Example 123] | 2.22 |

###

# target.of.assay: Rhesus PDE2A3 (Macaca mulatta)
# Sequence (B3VTJ2 1-941): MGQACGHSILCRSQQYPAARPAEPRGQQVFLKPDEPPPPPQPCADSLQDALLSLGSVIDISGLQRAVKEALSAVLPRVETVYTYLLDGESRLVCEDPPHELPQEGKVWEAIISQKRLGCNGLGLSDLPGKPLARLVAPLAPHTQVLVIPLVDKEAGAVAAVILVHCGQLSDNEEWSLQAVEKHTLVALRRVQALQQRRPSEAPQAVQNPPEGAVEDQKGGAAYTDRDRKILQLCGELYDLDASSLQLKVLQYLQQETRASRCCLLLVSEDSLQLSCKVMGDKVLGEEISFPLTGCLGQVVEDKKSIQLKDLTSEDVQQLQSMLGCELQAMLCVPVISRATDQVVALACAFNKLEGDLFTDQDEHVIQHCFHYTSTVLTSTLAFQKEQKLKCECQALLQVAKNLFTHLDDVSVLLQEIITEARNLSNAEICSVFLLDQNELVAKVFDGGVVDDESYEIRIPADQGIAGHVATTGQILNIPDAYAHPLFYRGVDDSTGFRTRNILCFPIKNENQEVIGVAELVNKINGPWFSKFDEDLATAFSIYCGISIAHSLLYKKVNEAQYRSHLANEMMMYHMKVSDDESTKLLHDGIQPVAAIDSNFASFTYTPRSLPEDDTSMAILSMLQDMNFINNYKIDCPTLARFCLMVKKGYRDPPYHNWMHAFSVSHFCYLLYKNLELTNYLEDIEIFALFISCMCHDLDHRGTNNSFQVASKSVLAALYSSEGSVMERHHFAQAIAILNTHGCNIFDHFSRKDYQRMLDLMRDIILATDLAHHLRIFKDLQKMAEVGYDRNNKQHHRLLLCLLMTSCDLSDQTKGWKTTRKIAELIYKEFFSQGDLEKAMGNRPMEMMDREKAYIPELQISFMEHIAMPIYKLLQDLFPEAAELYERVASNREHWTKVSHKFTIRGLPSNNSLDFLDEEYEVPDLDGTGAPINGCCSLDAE
# protocol.text: PDE2 fluorescence polarization (IMAP FP) inhibition assay, rhesus PDE2A3
# Format: biochemical, rhesus macaque
# applied.conditions: Lab A; read-out: Rhesus PDE2 Ki (nM) - Lab A
Threshold check on Ki: strictly below 4 nM is true; on or above 4 nM is false.

| compound | cat |
| --- | --- |
| C[C@@H](NC(=O)c1cc(=O)[nH]c(N)n1)c1ccc(SC(F)(F)F)cc1 [Example 145] | false |
| CNc1nc(C(=O)N[C@H](C)c2ccc(C(F)(F)F)cc2)cc(=O)[nH]1 [Example 135] | false |
| CC(NC(=O)c1cc(=O)[nH]c(OC2CCN(C)CC2)n1)c1ccc(C(F)(F)F)cc1 (centres unmarked) [Example 190] | false |
| C[C@@H](NC(=O)c1cc(=O)[nH]c(Nc2ccccn2)n1)c1ccc(C(F)(F)F)cc1 [Example 136] | false |
| CC(C)[C@@H](NC(=O)c1cc(=O)[nH]c(N(C)C)n1)c1ccc(OC(F)(F)F)c(F)c1 [Example 149] | true |

###

# efflux ratio at 1 μM listing for each entry below
# target.of.assay: P-glycoprotein (P-gp) (Homo sapiens (Human), UniProt P08183)
# protocol.text: P-gp transport, experimental BA/AB ratio, human
# Format: in vitro ADME
# applied.conditions: LLC-PK1, 1 μM substrate concentration

| compound | efflux ratio at 1 μM |
| --- | --- |
| CNc1nc(C(=O)N[C@@H](c2ccc(OC(F)(F)F)c(F)c2)C(C)C)cc(=O)[nH]1 [Example 151] | 6.5 |
| CC(C)[C@@H](NC(=O)c1cc(=O)[nH]c(N2CCC2)n1)c1ccc(SC(F)(F)F)cc1 [Example 148] | 1.3 |
| CN(C)c1nc(C(=O)N[C@@H](c2ccc(C(F)(F)F)cc2)C2(C)CC2)cc(=O)[nH]1 [Example 43] | 0.7 |
| CN(C)c1nc(C(=O)N[C@@H](c2ccc(OC(F)(F)F)cc2)C(C)(C)C)cc(=O)[nH]1 [Example 100] | 0.7 |
| CC(C)[C@@H](NC(=O)c1cc(=O)[nH]c(N(C)C)n1)c1ccc(SC(F)(F)F)cc1 [Example 30] | 0.4 |
| CC(C)[C@@H](NC(=O)c1cc(=O)[nH]c(N(C)C)n1)c1ccc(C(F)F)cc1 [Example 63] | 1.7 |
| C[C@@H](NC(=O)c1cc(=O)[nH]c(N(C)C)n1)c1ccc(C2CC2)c(F)c1 [Example 40] | 0.5 |
| C[C@@H](NC(=O)c1cc(=O)[nH]c(N(C)C)n1)c1ccc(OC(F)(F)F)cc1 [Example 87] | 0.5 |
